Would you kindly list %-inhibition of TRKA for each of these compounds?
target: panel of more than 300 wild-type and mutant kinases (313 kinase panel) (Homo sapiens, UniProt P04629); assay: Kinase profiling in a biochemical assay panel (mobility shift assays and ELISA), %-inhibition at 1 μM; selectivity entropy; details: kinase TRKA; 1 μM
Field format: number, assumed %, no unit text.

The compound identified as CO[C@H]1C[C@@H]2CC[C@@H](C)[C@@](O)(O2)C(=O)C(=O)N2CCCC[C@H]2C(=O)O[C@H]([C@H](C)C[C@@H]2CC[C@@H](OCCO)[C@H](OC)C2)CC(=O)[C@H](C)/C=C(\C)[C@@H](O)[C@@H](OC)C(=O)[C@H](C)C[C@H](C)/C=C/C=C/C=C/1C [everolimus] registered its %-inhibition of TRKA at -3.53

The compound identified as Cc1ccc(C(=O)Nc2ccc(CN3CCN(C)CC3)c(C(F)(F)F)c2)cc1C#Cc1cnc2cccnn12 [ponatinib] registered its %-inhibition of TRKA at 101

The compound identified as COc1cc2nccc(Oc3ccc(NC(=O)C4(C(=O)Nc5ccc(F)cc5)CC4)cc3)c2cc1OC [cabozantinib] registered its %-inhibition of TRKA at 100

The compound identified as N#CC[C@H](C1CCCC1)n1cc(-c2ncnc3[nH]ccc23)cn1 [ruxolitinib] registered its %-inhibition of TRKA at 92

The compound identified as CO[C@H]1C[C@@H]2CC[C@@H](C)[C@@](O)(O2)C(=O)C(=O)N2CCCC[C@H]2C(=O)O[C@H]([C@H](C)C[C@@H]2CC[C@@H](OC(=O)C(C)(CO)CO)[C@H](OC)C2)CC(=O)[C@H](C)/C=C(\C)[C@@H](O)[C@@H](OC)C(=O)[C@H](C)C[C@H](C)/C=C/C=C/C=C/1C [temsirolimus] registered its %-inhibition of TRKA at -3.53

---

biological target: panel of more than 300 wild-type and mutant kinases (313 kinase panel) (Homo sapiens, UniProt Q12866); experiment: Kinase profiling in a biochemical assay panel (mobility shift assays and ELISA), %-inhibition at 1 μM; selectivity entropy; conditions: kinase MER; compound at 1 μM
Sequence (Q12866 21-999, change not shown): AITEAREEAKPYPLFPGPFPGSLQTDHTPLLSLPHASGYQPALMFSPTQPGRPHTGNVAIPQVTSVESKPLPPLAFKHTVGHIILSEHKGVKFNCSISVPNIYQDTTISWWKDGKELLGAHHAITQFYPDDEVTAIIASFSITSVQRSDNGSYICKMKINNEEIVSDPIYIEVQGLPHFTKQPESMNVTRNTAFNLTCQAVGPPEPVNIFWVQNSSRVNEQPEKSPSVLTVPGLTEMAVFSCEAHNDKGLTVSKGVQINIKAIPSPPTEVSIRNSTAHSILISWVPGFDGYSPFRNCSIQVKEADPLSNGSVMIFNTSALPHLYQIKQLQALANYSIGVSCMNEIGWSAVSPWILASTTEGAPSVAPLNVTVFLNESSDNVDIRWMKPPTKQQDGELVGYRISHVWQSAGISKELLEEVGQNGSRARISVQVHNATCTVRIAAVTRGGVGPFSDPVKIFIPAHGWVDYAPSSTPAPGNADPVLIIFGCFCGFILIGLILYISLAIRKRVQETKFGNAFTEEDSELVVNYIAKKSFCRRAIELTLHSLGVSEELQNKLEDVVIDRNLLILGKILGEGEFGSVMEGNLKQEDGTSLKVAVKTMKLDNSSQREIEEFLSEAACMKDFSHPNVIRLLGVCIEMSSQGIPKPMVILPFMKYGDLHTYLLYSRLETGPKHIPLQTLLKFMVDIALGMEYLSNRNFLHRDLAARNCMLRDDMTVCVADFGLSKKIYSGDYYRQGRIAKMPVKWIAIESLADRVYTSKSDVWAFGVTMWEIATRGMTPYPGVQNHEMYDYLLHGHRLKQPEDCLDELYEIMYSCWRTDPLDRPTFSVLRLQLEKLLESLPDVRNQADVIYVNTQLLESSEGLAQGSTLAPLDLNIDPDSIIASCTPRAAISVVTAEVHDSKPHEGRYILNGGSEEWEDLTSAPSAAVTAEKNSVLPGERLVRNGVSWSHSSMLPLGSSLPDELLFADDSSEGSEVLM
Would you kindly list %-inhibition of MER for each of these compounds?
Field format: number, assumed %, no unit text.

The compound identified as CO[C@H]1C[C@@H]2CC[C@@H](C)[C@@](O)(O2)C(=O)C(=O)N2CCCC[C@H]2C(=O)O[C@H]([C@H](C)C[C@@H]2CC[C@@H](OC(=O)C(C)(CO)CO)[C@H](OC)C2)CC(=O)[C@H](C)/C=C(\C)[C@@H](O)[C@@H](OC)C(=O)[C@H](C)C[C@H](C)/C=C/C=C/C=C/1C registered its %-inhibition of MER at -3.24

The compound identified as CS(=O)(=O)CCNCc1ccc(-c2ccc3ncnc(Nc4ccc(OCc5cccc(F)c5)c(Cl)c4)c3c2)o1 registered its %-inhibition of MER at 6

The compound identified as CC(C)(C)c1nc(-c2cccc(NS(=O)(=O)c3c(F)cccc3F)c2F)c(-c2ccnc(N)n2)s1 registered its %-inhibition of MER at -0.876

The compound identified as Cc1cn(-c2cc(NC(=O)c3ccc(C)c(Nc4nccc(-c5cccnc5)n4)c3)cc(C(F)(F)F)c2)cn1 registered its %-inhibition of MER at -46

The compound identified as COc1cc2c(Nc3ccc(Br)cc3F)ncnc2cc1OCC1CCN(C)CC1 registered its %-inhibition of MER at 45

The compound identified as CC(=O)Nc1cccc(-n2c(=O)n(C3CC3)c(=O)c3c(Nc4ccc(I)cc4F)n(C)c(=O)c(C)c32)c1 registered its %-inhibition of MER at -6.62
